The values you see were collected from patent US12595269B2.

Experiment: Pharmacokinetic and brain penetration study, intravenous and oral administration in rats
Assay type: in vivo
Conditions: rat, plasma, iv, 0.5 mg/kg, two hours after IV administration, 0.5 mg/kg, read-out: free concentration in plasma
QUANTITY_MEASURED: concentration at 2 h (nM)
Write down the numeric answer in nM and omit the unit.

The reported value for Clc1ccc(C23CNC(CO2)C3)cc1Cl (stereo not shown) [522A] in terms of concentration at 2 h is 71.3

###

Assay: Pharmacokinetic and brain penetration study, intravenous and oral administration in rats
Type: in vivo
Conditions: rat, plasma, iv, 0.5 mg/kg, 0.5 mg/kg (Table 8)
Description: Methods and Procedure: The study was conducted in agreement with procedures to assure data integrity and GLP principles. Three experimental groups, as outlined below, were included in the study: […] Study samples, CS, QC, and blanks were spiked with an internal standard (IS), to improve the precision of the assay. Study samples were analyzed together with CS, QC and blank samples (including double blanks). […]
QUANTITY_MEASURED: AUC(0-t) (ng·h/mL)
Kindly answer with a numeric value in ng·h/mL, unit omitted.

Just so you know, measured AUC(0-t) for Clc1ccc(C23CNC(CO2)C3)cc1Cl (stereo not shown) [522A] came out at 1460

###

Assay: Pharmacokinetic and brain penetration study, intravenous and oral administration in rats
Format: in vivo
Conditions: plasma; rat, oral (PO), 1 mg/kg
QUANTITY_MEASURED: Tmax

In plain terms, Clc1ccc(C23CNC(CO2)C3)cc1Cl (stereo not shown) [522A] has a documented Tmax of 2 h

###

Catalogue of compounds with associated efflux ratio at 60 min
Molecular target: human P-glycoprotein (MDR1) (Homo sapiens, UniProt P08183)
Construct: expressed in transfected cells; host or cells: MDCKII (canine kidney)
Sequence (P08183 whole entry): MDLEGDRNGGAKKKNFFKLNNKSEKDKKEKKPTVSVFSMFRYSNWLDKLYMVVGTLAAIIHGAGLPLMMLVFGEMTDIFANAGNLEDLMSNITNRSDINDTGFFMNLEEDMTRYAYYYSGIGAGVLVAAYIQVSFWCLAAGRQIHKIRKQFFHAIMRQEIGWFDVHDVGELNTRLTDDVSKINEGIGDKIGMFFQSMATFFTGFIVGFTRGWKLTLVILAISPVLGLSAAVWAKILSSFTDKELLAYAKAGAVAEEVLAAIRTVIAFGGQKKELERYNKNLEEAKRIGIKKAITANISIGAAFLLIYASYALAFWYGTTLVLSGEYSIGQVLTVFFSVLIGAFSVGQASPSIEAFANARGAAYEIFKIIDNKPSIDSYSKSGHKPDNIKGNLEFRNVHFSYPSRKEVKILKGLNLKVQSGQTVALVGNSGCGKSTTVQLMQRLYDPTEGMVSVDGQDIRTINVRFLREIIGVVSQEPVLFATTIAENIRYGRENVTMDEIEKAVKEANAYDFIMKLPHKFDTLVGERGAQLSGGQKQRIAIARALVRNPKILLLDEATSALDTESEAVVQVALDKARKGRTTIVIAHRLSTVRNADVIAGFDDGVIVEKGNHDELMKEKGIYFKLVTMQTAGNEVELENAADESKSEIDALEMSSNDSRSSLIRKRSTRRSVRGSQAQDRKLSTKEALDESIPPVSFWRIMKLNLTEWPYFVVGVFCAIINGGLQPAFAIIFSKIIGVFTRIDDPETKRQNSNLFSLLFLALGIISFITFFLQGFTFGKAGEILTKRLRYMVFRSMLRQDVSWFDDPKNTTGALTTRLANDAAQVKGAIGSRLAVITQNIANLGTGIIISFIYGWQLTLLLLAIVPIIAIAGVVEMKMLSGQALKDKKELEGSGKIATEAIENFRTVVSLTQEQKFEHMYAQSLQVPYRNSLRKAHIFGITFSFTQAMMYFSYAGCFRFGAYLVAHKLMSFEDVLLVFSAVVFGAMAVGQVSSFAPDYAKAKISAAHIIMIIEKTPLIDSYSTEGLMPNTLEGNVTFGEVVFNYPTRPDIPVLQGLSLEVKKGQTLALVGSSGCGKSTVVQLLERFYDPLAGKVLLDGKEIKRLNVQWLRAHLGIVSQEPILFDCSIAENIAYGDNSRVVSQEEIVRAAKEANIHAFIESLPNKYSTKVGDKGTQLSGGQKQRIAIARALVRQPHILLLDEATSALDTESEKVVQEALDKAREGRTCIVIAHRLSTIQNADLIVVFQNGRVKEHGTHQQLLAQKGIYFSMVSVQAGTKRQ
Assay: P-gp substrate assessment, efflux ratio in MDCKII-MDR1 cells
Type: in vitro ADME
Conditions: dog, MDCK-MDR1, pH 7.4; efflux ratio; P-gp substrate if ratio >2 and reduced by inhibitor; read-out: B/A ratio in MDCKII-MDR1 cells
Protocol: Methods and Procedure: This study was conducted in compliance with previously described procedures to assure data integrity and adherence to GLP regulations. […] Compounds were tested at a single concentration (i.e. at 3 or 10 μM) at one time point (i.e. 60 min). […] Digoxin transport was evaluated in two directions (apical-to-basolateral [AB] and basolateral-to-apical [BA]) in the absence and presence of GF120918 or in mock cells, MDCKII (n=3). […]

Some compounds with known efflux ratio at 60 min results, for comparison:
compound="Clc1ccc(C23CNC(CO2)C3)cc1Cl (stereo not shown) [522A]" quantity_measured="efflux ratio at 60 min" observed_measurement=0.83
compound="CNC(C)Cc1ccc2c(c1)OCO2 (stereo not shown) [MDMA, reference compound]" quantity_measured="efflux ratio at 60 min" observed_measurement=1.5
compound="Clc1ccc([C@]23CN[C@H](CO2)C3)cc1Cl (single isomer, unassigned) [516A]" quantity_measured="efflux ratio at 60 min" observed_measurement=0.73

# input for lookup
get_value(item= Clc1ccc([C@@]23CN[C@@H](CO2)C3)cc1Cl (single isomer, unassigned) [518A] , readout=efflux ratio at 60 min) returns 0.7

###

Experiment: Pharmacokinetic and brain penetration study, intravenous and oral administration in rats
Assay type: in vivo
Settings: rat, plasma, iv, 0.5 mg/kg, 0.5 mg/kg (Table 8)
QUANTITY_MEASURED: AUC(0-inf) (ng·h/mL)
Quick note: give the figure in ng·h/mL, leave out the unit.

The measured AUC(0-inf) associated with Clc1ccc(C23CNC(CO2)C3)cc1Cl (stereo not shown) [522A] reads 1480

###

Experiment: Pharmacokinetic and brain penetration study, intravenous and oral administration in rats
Type: in vivo
Conditions: rat, plasma, iv, 0.5 mg/kg, 0.5 mg/kg (Table 8)
Protocol: Methods and Procedure: The study was conducted in agreement with procedures to assure data integrity and GLP principles. Three experimental groups, as outlined below, were included in the study: […] Study samples, CS, QC, and blanks were spiked with an internal standard (IS), to improve the precision of the assay. Study samples were analyzed together with CS, QC and blank samples (including double blanks). […]
QUANTITY_MEASURED: Cmax (ng/mL)
Field: numeric (ng/mL). Do not append units.

Just so you know, measured Cmax for Clc1ccc(C23CNC(CO2)C3)cc1Cl (stereo not shown) [522A] came out at 1890

###

Experiment: Pharmacokinetic and brain penetration study, intravenous and oral administration in rats
Type: in vivo
Details: rat, plasma, iv, 0.5 mg/kg, 0.5 mg/kg (Table 9)
QUANTITY_MEASURED: half-life (h)
Give the number; h is assumed, so skip it.

# half-life of Clc1ccc(C23CNC(CO2)C3)cc1Cl (stereo not shown) [522A] = 1.65

###

Assay: Pharmacokinetic and brain penetration study, intravenous and oral administration in rats
Format: in vivo
Conditions: rat, plasma, po, 1 mg/kg, oral (PO)
QUANTITY_MEASURED: AUC(0-t)
Please append the unit to your numeric answer.

Entry Clc1ccc(C23CNC(CO2)C3)cc1Cl (stereo not shown) [522A] ; AUC(0-t) = 442 ng·h/mL

###

Assay: Apparent permeability (Papp AB) in MDCKII cells
Type: in vitro ADME, Canine
Settings: dog, MDCK; pH 7.4, apical to basolateral, 60 min
QUANTITY_MEASURED: Papp A→B at 60 min (×10⁻⁶ cm/s)
Write the value in ×10⁻⁶ cm/s as a bare number.

// below: answered compounds
compound="CNC(C)Cc1ccc2c(c1)OCO2 (stereo not shown) [MDMA, reference compound]" quantity_measured="Papp A→B at 60 min" unit_of_measure="×10⁻⁶ cm/s" observed_measurement=14
compound="Clc1ccc([C@]23CN[C@H](CO2)C3)cc1Cl (single isomer, unassigned) [516A]" quantity_measured="Papp A→B at 60 min" unit_of_measure="×10⁻⁶ cm/s" observed_measurement=15.8
compound="Clc1ccc(C23CNC(CO2)C3)cc1Cl (stereo not shown) [522A]" quantity_measured="Papp A→B at 60 min" unit_of_measure="×10⁻⁶ cm/s" observed_measurement=9.45

Lab note: Clc1ccc([C@@]23CN[C@@H](CO2)C3)cc1Cl (single isomer, unassigned) [518A] gave Papp A→B at 60 min of 17.3

###

Target: CYP2C9 (Homo sapiens)
Sequence (P11712 whole entry): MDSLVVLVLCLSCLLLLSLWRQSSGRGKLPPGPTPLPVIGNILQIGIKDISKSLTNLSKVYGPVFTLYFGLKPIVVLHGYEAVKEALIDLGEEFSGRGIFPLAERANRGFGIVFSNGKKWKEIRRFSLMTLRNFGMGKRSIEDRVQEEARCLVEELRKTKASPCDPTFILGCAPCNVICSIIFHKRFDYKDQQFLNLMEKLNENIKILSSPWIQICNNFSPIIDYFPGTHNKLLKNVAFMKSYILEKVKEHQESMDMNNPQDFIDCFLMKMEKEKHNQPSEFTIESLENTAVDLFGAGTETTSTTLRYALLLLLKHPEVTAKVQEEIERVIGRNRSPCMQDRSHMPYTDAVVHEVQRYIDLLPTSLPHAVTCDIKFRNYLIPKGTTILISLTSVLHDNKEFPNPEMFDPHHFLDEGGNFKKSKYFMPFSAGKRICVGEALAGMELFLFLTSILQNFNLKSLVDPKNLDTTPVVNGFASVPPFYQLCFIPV
Assay: CYP450 inhibition, fluorescent probe, recombinant microsomes: CYP2C9
Conditions: recombinant human CYP2C9
pIC50: −log10 of the molar value.
QUANTITY_MEASURED: pIC50

Data point: Clc1ccc(C23CNC(CO2)C3)cc1Cl (stereo not shown) [522A] ; pIC50 = < 4.30

###

Test: Pharmacokinetic and brain penetration study, intravenous and oral administration in rats
Assay type: in vivo
Conditions: rat, plasma, iv, 0.5 mg/kg, IV, 0.5 mg/kg (Table 9), read-out: Clast
QUANTITY_MEASURED: concentration at 8 h (ng/mL)
All answers are understood in ng/mL, so give the number only.

For reference, reported concentration at 8 h for Clc1ccc(C23CNC(CO2)C3)cc1Cl (stereo not shown) [522A] stands at 10.6

###

Assay: Pharmacokinetic and brain penetration study, intravenous and oral administration in rats
Assay type: in vivo
Conditions: rat, plasma, po, 1 mg/kg, oral (PO)
QUANTITY_MEASURED: half-life

Summary for this compound, Clc1ccc(C23CNC(CO2)C3)cc1Cl (stereo not shown) [522A] : half-life is 2.42 h

###

Assay: Pharmacokinetic and brain penetration study, intravenous and oral administration in rats
Assay type: in vivo
Conditions: rat, plasma, po, 1 mg/kg, oral (PO)
QUANTITY_MEASURED: AUC(0-inf)
Your reply should be a number followed by the unit it is expressed in.

# compound Clc1ccc(C23CNC(CO2)C3)cc1Cl (stereo not shown) [522A] ; its AUC(0-inf) = 0.509 µg·h/mL

###

Experiment: Pharmacokinetic and brain penetration study, intravenous and oral administration in rats
Type: in vivo
Settings: brain and plasma, 0.5 mg/kg; rat, two hours after IV administration; read-out: mean brain-to-plasma ratio
QUANTITY_MEASURED: Kp at 2 h
Write the value as a bare number.

Clc1ccc(C23CNC(CO2)C3)cc1Cl (stereo not shown) [522A] has a reported Kp at 2 h of 4.96

###

Experiment: Pharmacokinetic and brain penetration study, intravenous and oral administration in rats
Assay type: in vivo
Details: rat, brain, iv, 0.5 mg/kg, two hours after IV administration, 0.5 mg/kg, read-out: free concentration in the brain
QUANTITY_MEASURED: concentration at 2 h (nM)
Enter your answer as a number in nM; do not include the unit.

Documented concentration at 2 h of Clc1ccc(C23CNC(CO2)C3)cc1Cl (stereo not shown) [522A] : 42.8

###

Test: Pharmacokinetic and brain penetration study, intravenous and oral administration in rats
Type: in vivo
Conditions: rat, plasma, iv, 0.5 mg/kg, 0.5 mg/kg (Table 8)
QUANTITY_MEASURED: clearance (mL/min/kg)
Report the figure in mL/min/kg without appending any unit label.

get_value(item= Clc1ccc(C23CNC(CO2)C3)cc1Cl (stereo not shown) [522A] , readout=clearance) returns 5.71
